experiment: Chemical stability of the compound assessed as half life in phosphate buffer at pH 6.0; assay type: physicochemical
Listed compounds paired with reported half-life
Report only the number, with the unit h understood.

>>> quantitative_readout("CC(=O)Nc1ccc(OC(=O)[C@@H]2CCCN2)cc1.Cl [ACETAMINOPHEN PROLINATE HYDROCHLORIDE]")
0.248

Return half-life for the following compound: CC(=O)Nc1ccc(OC(=O)CCN2CCCCC2)cc1.Cl 1.33

Consider the compound CCN(CC)CCC(=O)Oc1ccc(NC(C)=O)cc1.Cl . State its measured half-life. 1.32

Return half-life for the following compound: CC(=O)Nc1ccc(OC(=O)[C@@H](N)C(C)C)cc1.Cl [ACETAMINOPHEN VALINATE HYDROCHLORIDE] 1.52

Return the recorded half-life value; entry: CC(=O)Nc1ccc(OC(=O)CCN(C)C)cc1.Cl 1.88

Note down half-life recorded for CC(C)[C@H](N)C(=O)Oc1ccc2c3c1O[C@H]1C(=O)CC[C@@]4(O)[C@@H](C2)N(CC2CC2)CC[C@]314.O=C(O)C(F)(F)F 0.53

Identify measured half-life associated with CC(=O)Nc1ccc(OC(=O)CN(C)C)cc1.Cl 1.28

Provide one value: measured half-life of CC(=O)Nc1ccc(OC(=O)[C@H](C)N)cc1.Cl [ACETAMINOPHEN ALANINATE HYDROCHLORIDE] 0.539

Quote half-life reported for CCN(CC)CC(=O)Oc1ccc(NC(C)=O)cc1.Cl please. 1.76

Values from ChEMBL document CHEMBL1795248
